Procedure text: Cytotoxicity against human SW1736 cells by SRB assay
Assay type: functional, cell-based
Test context: SW-1736
Below, each entry is listed with its recorded IC50.

>  <Compound smiles>
COC(=O)[C@@]1(C)CC[C@]2(C)CC[C@]3(C)C(=CC(=O)[C@@H]4[C@@]5(C)CC[C@H](O[C@@H]6OC[C@@H](O)[C@H](O)[C@H]6O)C(C)(C)[C@@H]5CC[C@]43C)[C@@H]2C1

>  <Unit name>
µM

>  <Relation sign>
>

>  <IC50>
30

$$$$
>  <Compound smiles>
COC(=O)[C@@]1(C)CC[C@]2(C)CC[C@]3(C)C(=CC(=O)[C@@H]4[C@@]5(C)CC[C@H](O[C@@H]6O[C@H](CO)[C@H](O)[C@H](O)[C@H]6O)C(C)(C)[C@@H]5CC[C@]43C)[C@@H]2C1

>  <Unit name>
µM

>  <Relation sign>
=

>  <IC50>
21.4

$$$$
>  <Compound smiles>
COC(=O)[C@@]1(C)CC[C@]2(C)CC[C@]3(C)C(=CC(=O)[C@@H]4[C@@]5(C)CC[C@H](O[C@H]6O[C@@H](C)[C@H](O)[C@@H](O)[C@H]6O)C(C)(C)[C@@H]5CC[C@]43C)[C@@H]2C1

>  <Unit name>
µM

>  <Relation sign>
=

>  <IC50>
23.9

$$$$
>  <Compound smiles>
COC(=O)[C@@]1(C)CC[C@]2(C)CC[C@]3(C)C(=CC(=O)[C@@H]4[C@@]5(C)CC[C@H](O[C@@H]6O[C@@H](C)[C@H](O)[C@@H](O)[C@H]6O)C(C)(C)[C@@H]5CC[C@]43C)[C@@H]2C1

>  <Unit name>
µM

>  <Relation sign>
>

>  <IC50>
30

$$$$

====

Procedure text: Cytotoxicity against human DLD1 cells by SRB assay
Format: functional, cell-based
Test context: DLD-1
pIC50: −log10 of the molar value.
Below, each entry is listed with its recorded pIC50.
Measured endpoint: pIC50

>  <Compound smiles>
COC(=O)[C@@]1(C)CC[C@]2(C)CC[C@]3(C)C(=CC(=O)[C@@H]4[C@@]5(C)CC[C@H](O[C@@H]6O[C@@H](C)[C@H](O)[C@@H](O)[C@H]6O)C(C)(C)[C@@H]5CC[C@]43C)[C@@H]2C1

>  <Measured endpoint>
pIC50

>  <Test value>
< 4.52

$$$$
>  <Compound smiles>
COC(=O)[C@@]1(C)CC[C@]2(C)CC[C@]3(C)C(=CC(=O)[C@@H]4[C@@]5(C)CC[C@H](O[C@@H]6O[C@H](CO)[C@H](O)[C@H](O)[C@H]6O)C(C)(C)[C@@H]5CC[C@]43C)[C@@H]2C1

>  <Measured endpoint>
pIC50

>  <Test value>
4.63

$$$$
>  <Compound smiles>
COC(=O)[C@@]1(C)CC[C@]2(C)CC[C@]3(C)C(=CC(=O)[C@@H]4[C@@]5(C)CC[C@H](O[C@H]6O[C@@H](C)[C@H](O)[C@@H](O)[C@H]6O)C(C)(C)[C@@H]5CC[C@]43C)[C@@H]2C1

>  <Measured endpoint>
pIC50

>  <Test value>
< 4.52

$$$$

====

Procedure text: Cytotoxicity against human 518A2 cells by SRB assay
Assay type: functional, cell-based
Below, each entry is listed with its recorded IC50.
Measured endpoint: IC50 (µM)

>  <Compound smiles>
COC(=O)[C@@]1(C)CC[C@]2(C)CC[C@]3(C)C(=CC(=O)[C@@H]4[C@@]5(C)CC[C@H](O[C@@H]6OC[C@H](O)[C@H](O)[C@H]6O)C(C)(C)[C@@H]5CC[C@]43C)[C@@H]2C1

>  <Relation sign>
>

>  <Test value>
30

$$$$
>  <Compound smiles>
COC(=O)[C@@]1(C)CC[C@]2(C)CC[C@]3(C)C(=CC(=O)[C@@H]4[C@@]5(C)CC[C@H](O[C@H]6O[C@H](CO)[C@@H](O)[C@H](O)[C@@H]6O)C(C)(C)[C@@H]5CC[C@]43C)[C@@H]2C1

>  <Relation sign>
=

>  <Test value>
25.9

$$$$

Source listed as ChEMBL document CHEMBL3102762.
